Molecular target: HPK1 (Homo sapiens)
Construct: A HiBiT tag was introduced by CRISPR on the N terminus of HPK1 in Jurkat cells; host or cells: Jurkat cells (ATCC TIB-152), monoclonal line with CRISPR knock-in of HiBiT at the endogenous HPK1 locus
Sequence (Q92918 whole entry): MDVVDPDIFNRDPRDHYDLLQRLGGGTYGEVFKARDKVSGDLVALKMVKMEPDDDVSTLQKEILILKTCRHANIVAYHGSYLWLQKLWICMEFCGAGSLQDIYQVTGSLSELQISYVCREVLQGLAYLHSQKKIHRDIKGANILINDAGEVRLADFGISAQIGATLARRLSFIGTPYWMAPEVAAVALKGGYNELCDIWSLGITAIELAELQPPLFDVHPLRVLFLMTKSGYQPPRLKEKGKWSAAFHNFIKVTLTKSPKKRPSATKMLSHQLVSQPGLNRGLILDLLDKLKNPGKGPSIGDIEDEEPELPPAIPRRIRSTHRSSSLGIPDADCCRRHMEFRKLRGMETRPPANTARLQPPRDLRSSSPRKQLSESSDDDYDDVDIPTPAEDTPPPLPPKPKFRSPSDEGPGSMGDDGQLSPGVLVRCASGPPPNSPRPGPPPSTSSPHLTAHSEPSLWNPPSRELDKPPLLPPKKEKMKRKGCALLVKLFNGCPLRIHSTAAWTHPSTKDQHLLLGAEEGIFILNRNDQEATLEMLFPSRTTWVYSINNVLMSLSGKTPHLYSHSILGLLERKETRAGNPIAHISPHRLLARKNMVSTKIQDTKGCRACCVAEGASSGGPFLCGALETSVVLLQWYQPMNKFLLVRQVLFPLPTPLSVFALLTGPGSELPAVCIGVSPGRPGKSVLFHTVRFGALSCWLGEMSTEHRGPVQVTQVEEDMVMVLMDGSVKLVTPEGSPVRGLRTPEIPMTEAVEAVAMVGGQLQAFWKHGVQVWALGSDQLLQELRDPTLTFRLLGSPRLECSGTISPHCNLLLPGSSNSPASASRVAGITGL
Experiment: HPK1 Cellular HiBit Degradation Assay
Type: cell-based
Details: HiBiT HPK1 Jurkat cells, 24 hrs; concentration at which 50% of HPK1 was remaining; read-out: DC50 Category
Please respond with reported DC50 for every item in the list.

Look up and report DC50, with HPK1 (Homo sapiens) as system, for CC(C)n1cnc2cc(-c3ccc4c(c3)N([C@H]3C[C@@H](N5CCCCC5)C3)C(=O)C43CCN(C(=O)[C@H]4CC[C@@H](C(=O)N5CCN(c6ccc7c(c6)C(=O)N(C6CCC(=O)NC6=O)C7=O)CC5)CC4)CC3)nc(Nc3ccccc3F)c21 (mixture of isomers) [Example 31]
100 to 500 nM

Fill in DC50 for CC(C)n1cnc2cc(-c3ccc4c(c3)N([C@H]3C[C@@H](N5CCCCC5)C3)C(=O)C43CCN(C(=O)C4(C)CCN(C(=O)C5CCN(c6ccc(C7CCC(=O)NC7=O)cn6)CC5)CC4)CC3)nc(NC3CCOCC3)c21 (mixture of isomers) [Example 214] tested with HPK1 (Homo sapiens).
< 100 nM

Provide HPK1 (Homo sapiens) DC50 reading for CC(C)n1cnc2cc(-c3ccc4c(c3)N([C@H]3C[C@@H](N5CCCCC5)C3)C(=O)C43CCN(C(=O)[C@@H]4C[C@H]5CC[C@@H](C4)N5C(=O)C4CCN(c5ccc(C6CCC(=O)NC6=O)cn5)CC4)CC3)nc(NC3CC3)c21 (mixture of isomers) [Example 286] .
< 100 nM

Provide measured DC50 on HPK1 (Homo sapiens) for CC(C)n1cnc2cc(-c3ccc4c(c3)N([C@H]3C[C@@H](N5CCCCC5)C3)C(=O)C43CCN(C(=O)C4(C)CCN(C(=O)C5CCN(c6ccc(N7CCC(=O)NC7=O)cn6)CC5)CC4)CC3)nc(NC3CC3)c21 [Example 115] please.
< 100 nM

// output DC50; input CC(C(=O)N1CCN(C(=O)C2CCN(c3ccc(C4CCC(=O)NC4=O)cn3)CC2)CC1)N1CCC2(CC1)C(=O)N([C@H]1C[C@@H](N3CCCCC3)C1)c1cc(-c3cc4ncn(C(C)C)c4c(NC4CC4)n3)ccc12 (stereo partly shown) [Example 172] ; system HPK1 (Homo sapiens)
< 100 nM

Output reported DC50 of the molecule CC(C)n1cnc2cc(-c3ccc4c(c3)N([C@H]3C[C@@H](N5CCCCC5)C3)C(=O)C43CCN(C(=O)C4(C)CCN(C(=O)[C@H]5CC[C@H](Oc6ccc(C7CCC(=O)NC7=O)cn6)CC5)CC4)CC3)nc(NC3CC3)c21 (mixture of isomers) [Example 104] on HPK1 (Homo sapiens).
< 100 nM

Determine reported DC50 for CC(C)n1cnc2cc(-c3ccc4c(c3)N([C@H]3C[C@@H](N5CCCCC5)C3)C(=O)C43CCN(C(=O)[C@@H]4CCN(C(=O)[C@H]5CC[C@H](Nc6ccc(C7CCC(=O)NC7=O)cn6)CC5)C4)CC3)nc(Nc3ccccc3F)c21 (mixture of isomers) [Example 6] ; test system: HPK1 (Homo sapiens).
100 to 500 nM
